Molecular target: UniProtKB P05364
Sequence (P05364 21-381): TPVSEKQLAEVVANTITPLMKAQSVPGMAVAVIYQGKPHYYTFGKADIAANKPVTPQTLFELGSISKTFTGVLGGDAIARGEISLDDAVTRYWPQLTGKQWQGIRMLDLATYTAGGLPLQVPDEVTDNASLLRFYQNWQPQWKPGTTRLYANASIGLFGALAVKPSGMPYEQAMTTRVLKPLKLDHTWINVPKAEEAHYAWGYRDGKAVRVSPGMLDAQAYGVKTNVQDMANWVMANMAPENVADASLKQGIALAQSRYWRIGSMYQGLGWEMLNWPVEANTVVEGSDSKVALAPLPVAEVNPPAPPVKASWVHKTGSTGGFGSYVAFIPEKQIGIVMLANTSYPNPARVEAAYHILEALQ
property.measured: pIC50
Quick note: pIC50 values are minus log10 of concentrations in mol/L.

molecule: NC[C@@H]1C(c2ncco2)=C[C@@H]2CN1C(=O)N2OS(=O)(=O)[O-].O=C(O)C(F)(F)F.[Na+] [Example 5, sulfate]
target.or.test.system: UniProtKB P05364
endpoint.result: 4.96
//
molecule: NC[C@@H]1C(c2nccs2)=C[C@@H]2CN1C(=O)N2OS(=O)(=O)[O-].O=C(O)C(F)(F)F.[Na+] [Example 2, sulfate]
target.or.test.system: UniProtKB P05364
endpoint.result: 8.49
//
molecule: NC[C@@H]1C=C(c2cnco2)[C@@H]2CN1C(=O)N2OC(F)(F)C(=O)O (relative stereo)
target.or.test.system: UniProtKB P05364
endpoint.result: 8.13

Below: the item to evaluate.
**Q:** Test system UniProtKB P05364; read-out pIC50; what value for Cn1cc(C2=C[C@@H](CN)N3C[C@@H]2N(OS(=O)(=O)O)C3=O)cnc1=O (relative stereo) ?
**A:** 5.19

###

Molecular target: KPC-2 (Klebsiella pneumoniae, UniProt Q9F663)
Assay: β-lactamase inhibitory activity, determination of IC50 (nitrocefin hydrolysis)
pIC50: −log10 of the molar value.
Everything with pIC50 lower than 6 is F; everything else, including exactly 6, is T.

molecule: NC[C@@H]1C=C(c2cnco2)[C@@H]2CN1C(=O)N2OC(F)(F)C(=O)O (relative stereo)
qualitative.label: T
//
molecule: NC[C@H]1C=C(c2cnco2)[C@@H]2CN1C(=O)N2OS(=O)(=O)[O-].O=C(O)C(F)(F)F.[Na+] (relative stereo) [Example 1, sulfate]
qualitative.label: T
//
molecule: NC[C@@H]1C(c2nccs2)=C[C@@H]2CN1C(=O)N2OS(=O)(=O)[O-].O=C(O)C(F)(F)F.[Na+] [Example 2, sulfate]
qualitative.label: T
//
molecule: NC[C@@H]1C(c2ncco2)=C[C@@H]2CN1C(=O)N2OS(=O)(=O)[O-].O=C(O)C(F)(F)F.[Na+] [Example 5, sulfate]
qualitative.label: F

Alright, here's another molecule for you.
**Q:** Is it the case that Cn1cc(C2=C[C@@H](CN)N3C[C@@H]2N(OS(=O)(=O)O)C3=O)cnc1=O (relative stereo) has pIC50 reaching or exceeding 6?
**A:** F

###

Tested on: P. aeruginosa CIP105250 (OXA-15)
Test: MIC of compounds and synergy with ceftazidime (broth microdilution)
Type: cell-based
Conditions: MIC of ceftazidime with compound fixed at 4 μg/mL; strain CIP105250 (P. aeruginosa)
Structures can show the parent of a compound that is named as a salt.
property.measured: MIC, combination of CAZ and compounds of the invention

As a guide, the following entries are already answered.
compound: NC[C@@H]1C(c2ncco2)=C[C@@H]2CN1C(=O)N2OS(=O)(=O)[O-].O=C(O)C(F)(F)F.[Na+]
endpoint.result: <0.25 µg/mL

compound: NC[C@@H]1C(c2nccs2)=C[C@@H]2CN1C(=O)N2OS(=O)(=O)[O-].O=C(O)C(F)(F)F.[Na+]
endpoint.result: ≤0.125 µg/mL

**Q:** # input compound: NC[C@@H]1C=C(c2cnco2)[C@@H]2CN1C(=O)N2OS(=O)(=O)O (relative stereo) [Example 1, sulfate] ; wanted: its MIC, combination of CAZ and compounds of the invention
**A:** ≤0.125 µg/mL

The values you see were collected from patent US10072006B2.
